Examples of compounds with documented log10 MIC follow.
System: carbapenemase producing K. pneumoniae
assaySummary: MIC by broth micro-dilution (CLSI), carbapenemase producing K. pneumoniae
Type: cell-based, Klebsiella pneumoniae
conditionSet: Klebsiella pneumoniae, ATCCBAA1705, KPC-2 K. pneumoniae ATCC BAA-1705; read-out: MIC
Lab note - MIC converted to log10 from values in µg/mL.

The reported value for C[C@@H](NC(=O)Cn1cnnn1)[C@H]1C(=O)N2C(C(=O)O)=C(S[C@@H]3CN[C@H](C(=O)N4CCC(N)(CO)C4)C3)[C@H](C)[C@H]12 (single isomer, unassigned) in terms of log10 MIC is 0.30

The reported value for "COc1nnnn1CC(=O)N[C@H](C)[C@H]1C(=O)N2C(C(=O)O)=C(S[C@@H]3CN[C@H](C(=O)N4CC[C@@H](N)C4)C3)[C@H](C)[C@H]12" in terms of log10 MIC is 0.90

The reported value for "C[C@@H](NC(=O)C(F)F)[C@H]1C(=O)N2C(C(=O)O)=C(S[C@@H]3CN[C@H](C(=O)N(C)CCC(=O)N4CC[C@H](N)C4)C3)[C@H](C)[C@H]12" in terms of log10 MIC is 0.90

The reported value for "C[C@@H](NC(=O)Cn1cnnn1)[C@H]1C(=O)N2C(C(=O)O)=C(SC3CN(C4=NCCS4)C3)[C@H](C)[C@@H]12" in terms of log10 MIC is 0.00

The reported value for "C[C@@H](NC(=O)Cn1cnnn1)[C@H]1C(=O)N2C(C(=O)O)=C(S[C@@H]3CN[C@H](C(=O)N4CCC(N5CC[C@@H](N)C5)CC4)C3)[C@H](C)[C@H]12" in terms of log10 MIC is 0.30

The reported value for "C[C@@H](NC(=O)C(F)F)[C@H]1C(=O)N2C(C(=O)O)=C(S[C@@H]3CN[C@H](C(=O)N4CCC(C(=O)O)CC4)C3)[C@H](C)[C@H]12" in terms of log10 MIC is 1.20

---

Tested on: carbapenem sensitive Escherichia coli
assaySummary: MIC by broth micro-dilution (CLSI), carbapenem sensitive E. coli
Assay type: cell-based
conditionSet: ESBL −ve E. coli ATCC25922
resultType: MIC (µg/mL)
Express your answer in µg/mL, writing the number without its unit.

Consider the worked cases shown below.
C[C@@H](NC(=O)Cn1cnnn1)[C@H]1C(=O)N2C(C(=O)O)=C(S[C@@H]3CN[C@H](C(=O)N4CCC5CN(C(=N)N)CCC54)C3)[C@H](C)[C@H]12 (single isomer, unassigned)    0.125
C[C@@H](NC(=O)Cn1cnnn1)[C@H]1C(=O)N2C(C(=O)O)=C(S[C@@H]3CN[C@H](C(=O)N4CC5CCNC5(CO)C4)C3)[C@H](C)[C@H]12 (single isomer, unassigned)    0.125
C[C@@H](NC(=O)Cn1cnnn1)[C@H]1C(=O)N2C(C(=O)O)=C(S[C@@H]3CN[C@H](C(=O)N4CC5(CC(N)CO5)C4)C3)[C@H](C)[C@H]12 (single isomer, unassigned)    0.125
C[C@@H](NC(=O)Cn1cnnn1)[C@H]1C(=O)N2C(C(=O)O)=C(SC3COC4(CNC4)C3)[C@H](C)[C@H]12 (single isomer, unassigned) [Example 557]    0.125
C[C@@H](NC(=O)Cn1cnnn1)[C@H]1C(=O)N2C(C(=O)O)=C(S[C@@H]3CN[C@H](C(=O)N4CCC5CN(C[C@@H](O)CN)CCC54)C3)[C@H](C)[C@H]12 (single isomer, unassigned)    0.25
C[C@@H](NC(=O)Cn1cnnn1)[C@H]1C(=O)N2C(C(=O)O)=C(SC3COC4(CNC4)C3)[C@H](C)[C@H]12 (single isomer, unassigned) [Example 558]    0.5

The reported value for C[C@@H](NC(=O)Cn1cnnn1)[C@H]1C(=O)N2C(C(=O)O)=C(S[C@@H]3CN[C@H](C(=O)N4CC(N)C(F)C4)C3)[C@H](C)[C@H]12 (single isomer, unassigned) in terms of MIC is 0.25

The reported value for C[C@@H](NC(=O)Cn1cnnn1)[C@H]1C(=O)N2C(C(=O)O)=C(S[C@@H]3CN[C@H](C(=O)N4CCCC45CCCNC5)C3)[C@H](C)[C@H]12 (single isomer, unassigned) in terms of MIC is 0.5

The reported value for C[C@@H](NC(=O)Cn1cnnn1)[C@H]1C(=O)N2C(C(=O)O)=C(S[C@@H]3CN[C@H](C(=O)N4CC(O)C(CN)C4)C3)[C@H](C)[C@H]12 (single isomer, unassigned) in terms of MIC is 0.25

---

Examples of compounds with documented MIC follow.
Test system: carbapenemase producing K. pneumoniae
assaySummary: MIC by broth micro-dilution (CLSI), carbapenemase producing K. pneumoniae
Type: cell-based, Klebsiella pneumoniae
conditionSet: Klebsiella pneumoniae, ATCCBAA1705, KPC-2 K. pneumoniae ATCC BAA-1705; read-out: MIC
Express your answer in µg/mL, writing the number without its unit.

Consider the worked cases shown below.
C[C@@H](NC(=O)Cn1cnnn1)[C@H]1C(=O)N2C(C(=O)O)=C(S[C@@H]3CN[C@H](C(=O)Nc4ccncc4)C3)[C@H](C)[C@H]12    1
CNCC(=O)N[C@H](C)[C@H]1C(=O)N2C(C(=O)O)=C(S[C@@H]3CN[C@H](C(=O)N(CCN)CCO)C3)[C@H](C)[C@H]12    16
CNCC(=O)N[C@H](C)[C@H]1C(=O)N2C(C(=O)O)=C(S[C@@H]3CN[C@H](CNS(=O)(=O)N4CC[C@H](N)C4)C3)[C@H](C)[C@H]12    16
C[C@@H](NC(=O)C(F)F)[C@H]1C(=O)N2C(C(=O)O)=C(S[C@@H]3CN[C@H](CNS(=O)(=O)N4CC[C@H](N)C4)C3)[C@H](C)[C@H]12    4

// moving on: another record for MIC
The reported value for "CNCC(=O)N[C@H](C)[C@H]1C(=O)N2C(C(=O)O)=C(S[C@@H]3CN[C@H](CNC(=O)[C@H]4CC[C@@H](N)C4)C3)[C@H](C)[C@H]12" in terms of MIC is 8

---

Test system: carbapenemase producing K. pneumoniae
assaySummary: MIC by broth micro-dilution (CLSI), carbapenemase producing K. pneumoniae
Format: cell-based, Klebsiella pneumoniae
conditionSet: Klebsiella pneumoniae, ATCCBAA1705, KPC-2 K. pneumoniae ATCC BAA-1705; read-out: MIC
resultType: MIC (µg/mL)
Express your answer in µg/mL, writing the number without its unit.

The reported value for C[C@@H](NC(=O)C[S+]([O-])C(F)F)[C@H]1C(=O)N2C(C(=O)O)=C(S[C@@H]3CN[C@H](C(=O)N(C)C)C3)[C@H](C)[C@H]12 (mixture of isomers) [Example 82] in terms of MIC is 8

The reported value for C[C@@H](NS(=O)(=O)c1ccccc1)[C@H]1C(=O)N2C(C(=O)O)=C(S[C@@H]3CN[C@H](C(=O)N(C)C)C3)[C@H](C)[C@H]12 [Example 11] in terms of MIC is 32

The reported value for C[C@@H](NC(=O)C(F)F)[C@H]1C(=O)N2C(C(=O)O)=C(SC[C@@H]3C[C@H](NS(N)(=O)=O)CN3)[C@H](C)[C@H]12 [Example 267] in terms of MIC is 2

The reported value for C[C@@H](NC(=O)[C@H](N)CO)[C@H]1C(=O)N2C(C(=O)O)=C(S[C@@H]3CN[C@H](C(=O)N(C)C)C3)[C@H](C)[C@H]12 [Example 56] in terms of MIC is 16

The reported value for C[C@@H](NS(C)(=O)=O)[C@H]1C(=O)N2C(C(=O)O)=C(S[C@@H]3CN[C@H](C(=O)N4CC[N+](C)(CC(N)=O)CC4)C3)[C@H](C)[C@H]12 [Example 39] in terms of MIC is 16

The reported value for C[C@@H](NC(=O)C(F)F)[C@H]1C(=O)N2C(C(=O)O)=C(S[C@@H]3CN[C@H](C(=O)N4C[C@@H](N)C[C@H]4CNS(N)(=O)=O)C3)[C@H](C)[C@H]12 [Example 212] in terms of MIC is 4

---

Tested on: carbapenemase producing K. pneumoniae
assaySummary: MIC by broth micro-dilution (CLSI), carbapenemase producing K. pneumoniae
Format: cell-based, Klebsiella pneumoniae
conditionSet: Klebsiella pneumoniae, ATCCBAA1705, KPC-2 K. pneumoniae ATCC BAA-1705; read-out: MIC
API: label(entry) gives 1 if the entry's MIC is strictly smaller than 8 µg/mL; on equality or larger values it gives 0.

As a guide, the following entries are already answered.
C[C@@H](NC(=O)C(F)F)[C@H]1C(=O)N2C(C(=O)O)=C(S[C@@H]3CN[C@H](C(=O)C4C[C@@H](N)C[C@H]4CF)C3)[C@H](C)[C@H]12 (stereo partly drawn)    1
C[C@@H](NC(=O)Cn1cnnn1)[C@H]1C(=O)N2C(C(=O)[O-])=C(S[C@@H]3CN[C@H](C(=O)N4CCC5C[N+](C)(C)CCC54)C3)[C@H](C)[C@H]12 (stereo partly drawn)    1
C[C@@H](NC(=O)C(F)F)[C@H]1C(=O)N2C(C(=O)O)=C(S[C@@H]3CN[C@H](C(=O)N4C[C@@H](N)C[C@H]4CN)C3)[C@H](C)[C@H]12    0
C[C@@H](NC(=O)Cn1cnnn1)[C@H]1C(=O)N2C(C(=O)O)=C(S[C@@H]3CN[C@H](C(=O)N4C[C@H]5CNC[C@@]5(CO)C4)C3)[C@H](C)[C@H]12    1
C[C@H]([C@H]1C(=O)N2C(C(=O)O)=C(S[C@@H]3CN[C@H](C(=O)N4CC[C@@H](N)C4)C3)[C@H](C)[C@H]12)n1cnnn1    1
C[C@@H](NC(=O)Cn1cnnn1)[C@H]1C(=O)N2C(C(=O)O)=C(S[C@@H]3CN[C@H](C(=O)N4CCN(C(=O)CCN)CC4)C3)[C@H](C)[C@H]12    1
C[C@@H](NC(=O)Cn1cnnn1)[C@H]1C(=O)N2C(C(=O)O)=C(S[C@@H]3CN[C@H](C(=O)N4CC[C@@H](N)[C@H]4CO)C3)[C@H](C)[C@H]12    1
C[C@@H](NC(=O)Cn1cnnn1)[C@H]1C(=O)N2C(C(=O)O)=C(S[C@@H]3CN[C@H](C(=O)N4CCC(N)CC4)C3)[C@H](C)[C@H]12    1
C[C@@H](NC(=O)Cn1cnnn1)[C@H]1C(=O)N2C(C(=O)O)=C(S[C@@H]3CN[C@H](C(=O)N4CC(F)(CN)C4)C3)[C@H](C)[C@H]12    0
C[C@@H](NS(=O)(=O)N(C)C)[C@H]1C(=O)N2C(C(=O)O)=C(S[C@@H]3CN[C@H](C(=O)N(C)C)C3)[C@H](C)[C@H]12    0

Determine whether this compound shows MIC lower than 8 µg/mL (ties excluded): "C[C@@H](NC(=O)Cn1cnnn1)[C@H]1C(=O)N2C(C(=O)O)=C(S[C@@H]3CN[C@H](C(=O)N4CCC5(CCCCN5)CC4)C3)[C@H](C)[C@H]12"
1

Determine whether this compound shows MIC lower than 8 µg/mL (ties excluded): "C[C@@H](NC(=O)[C@@H]1CCCN1)[C@H]1C(=O)N2C(C(=O)O)=C(S[C@@H]3CN[C@H](CNS(N)(=O)=O)C3)[C@H](C)[C@H]12"
1

Determine whether this compound shows MIC lower than 8 µg/mL (ties excluded): "CNCC(=O)N[C@H](C)[C@H]1C(=O)N2C(C(=O)O)=C(S[C@@H]3CN[C@H](C(=O)N4CC[C@@H](CN)C4)C3)[C@H](C)[C@H]12"
1

Determine whether this compound shows MIC lower than 8 µg/mL (ties excluded): "C[C@@H](NC(=O)Cn1ccnn1)[C@H]1C(=O)N2C(C(=O)O)=C(S[C@@H]3CN[C@H](C(=O)N(C)C)C3)[C@H](C)[C@H]12"
1

Determine whether this compound shows MIC lower than 8 µg/mL (ties excluded): "CNCC(=O)N[C@H](C)[C@H]1C(=O)N2C(C(=O)O)=C(S[C@@H]3CN[C@H](C(=O)N4CCC(C)(N)CC4)C3)[C@H](C)[C@H]12"
1

Determine whether this compound shows MIC lower than 8 µg/mL (ties excluded): "C[C@@H](NC(=O)OCC(F)(F)F)[C@H]1C(=O)N2C(C(=O)O)=C(S[C@@H]3CN[C@H](C(=O)N(C)C)C3)[C@H](C)[C@H]12"
0
